Numbers sourced from PubChem BioAssay (NCI).

Test system: HCT-116 colon
assayDetails: NCI tumour cell line growth inhibition, 48 h
observable: GI50

{"compound": "COc1ccc(-c2cnc(-c3ccc(F)cc3)[nH]2)cc1", "testValue": "1.36 µM"}

Value sought for every listed compound: GI50.
1. Nc1nc2ccc([C@@H]3Nc4ccc5[nH]ncc5c4[C@H]4[C@H]5CCC(C5)[C@H]43)cc2s1
2. Cc1cc(S(=O)(=O)Nc2nc3ccsc3c(=O)n2Cc2ccco2)c(S)cc1Cl
3. O=C([O-])c1ccc2c(c1)-c1nc-2nc2[n-]c(nc3nc(nc4[n-]c(n1)c1ccc(C(=O)[O-])cc41)-c1cc(C(=O)[O-])ccc1-3)c1ccc(C(=O)[O-])cc21.[Fe+2]
4. C=C(CN1CCN(c2cccc(C(F)(F)F)c2)CC1)c1ccc(C(=O)Nc2ccccc2N)cc1

Reply:
1: 0.488 µM; 2: > 100 µM; 3: 13.6 µM; 4: 1.14 µM

* * *

I'd be grateful if you could share measured TGI for these entries.
Tested on: HT29 colon
assayDetails: NCI tumour cell line growth inhibition, 48 h

{"molecule": "CN1N=C2c3ccccc3CC[C@H]2C1c1ccccc1 (stereo partly specified)", "TGI": "> 100 µM"}
{"molecule": "C[n+]1c2ccccc2c(CNC(CCC(N)=O)C(=O)O)c2ccccc21 (stereo unspecified)", "TGI": "7.01 µM"}
{"molecule": "COc1cc(NN=C(c2ccc(O)cc2)c2ccc(O)cc2)c([N+](=O)[O-])cc1[N+](=O)[O-]", "TGI": "25.6 µM"}
{"molecule": "C/C(Cl)=N\\OC(=O)Nc1ccccc1C(F)(F)F", "TGI": "34.7 µM"}
{"molecule": "O=C1C(Cl)=C(Nc2ccc3cn[nH]c3c2)C(=O)c2ccccc21", "TGI": "3.72 µM"}

Value sought for every listed molecule: TGI.
1. NC1CC2C3CCC2C1C3=O (stereo unspecified)
2. Cc1ccc(/C=C2\NC(=S)N(CN3CCOCC3)C2=O)cc1
3. C=CC1OC(CCCOC(=O)C(C)(C)C)O[C@@H]1CC (stereo partly specified)
4. N/N=C1\c2ccccc2C2/C(=N\N)c3ccccc3C12 (stereo unspecified)
5. O=C(O)c1c(CC(Cc2ccc3c(c2)CCCC3)C(=O)O)ccc2c1CCCC2 (stereo unspecified)
6. COC(=O)c1ccc2n1C1CC3CC(CC2C3)C1

Reply:
["> 100 µM", "> 100 µM", "> 100 µM", "> 100 µM", "> 100 µM", "> 100 µM"]

* * *

Tested on: M14 melanoma
assayDetails: NCI tumour cell line growth inhibition, 48 h
I'd be grateful if you could share measured TGI for these entries.

{"compound": "NC(=O)c1csc(C2C=CC(CO)O2)n1 (stereo unspecified)", "testValue": "> 100 µM"}

Value sought for every listed compound: TGI.
1. COC1=CC(=O)C(O)=C(C[C@@]2(C)[C@@H]3CCC[C@H](COC(=O)CCCCCNC(=O)OC(C)(C)C)[C@@]3(C)CC[C@@H]2C)C1=O
2. O=S(=O)(O)CCS
3. C=CCN1C(=O)/C(=C/c2ccc(C)cc2)N=C1SC/C=C/C
4. CO/N=C1\CCC2(O)C3Cc4ccc(O)c5c4C2(CCN3CC2CC2)[C@H]1O5 (stereo partly specified)
5. CN(C)C(=O)CC(C(=O)O)c1c[nH]c2ccccc12 (stereo unspecified)

Reply:
1: > 10 µM; 2: > 100 µM; 3: > 100 µM; 4: > 100 µM; 5: > 100 µM
